Assay Comment: Solubility assay (kinetic solubility, PBS pH 7)
Assay type: physicochemical
Condition Set: pH 7, PBS
Positions of bridges follow the written chain, without caps; N, C: chain ends. Non-standard residues stand in square brackets, D forms with d. Residues, ends and D or L forms follow the SMILES beside them. Lys(N3) = [N-]=[N+]=NCCCC[C@H](N)C(=O)O; R8 = C=CCCCCCC[C@@](C)(N)C(=O)O; Cba = N[C@@H](CC1CCC1)C(=O)O; S5 = C=CCCC[C@](C)(N)C(=O)O; βAla = NCCC(=O)O
Outcome Measure: Solubility

CC(=O)N[C@@H](CC(C)C)C(=O)N[C@H](C(=O)N[C@@H](Cc1ccccc1)C(=O)N[C@]1(C)CCCCCCC=CCCC[C@@](C)(C(=O)N[C@@H](CO)C(=O)N[C@@H](C)C(=O)N[C@@H](C)C(N)=O)NC(=O)[C@H](CC2CCC2)NC(=O)[C@H](CC(C)C)NC(=O)[C@H](CCCNC(=N)N)NC(=O)[C@H](Cc2c[nH]c3ccccc23)NC(=O)[C@H](Cc2ccc(O)cc2)NC(=O)[C@H](CCC(=O)O)NC1=O)[C@@H](C)O [MP-194] (Ac-LTF[R8]EYWRL[Cba][S5]SAA-NH2; staple 4-11): Poorly Behaved
CC(=O)N[C@@H](CCC(=O)O)C(=O)N[C@@H](CCCCN=[N+]=[N-])C(=O)NCCCCCC(=O)N[C@H](C(=O)N[C@@H](CO)C(=O)N[C@@H](Cc1ccccc1)C(=O)N[C@]1(C)CCCCCCC=CCCC[C@@](C)(C(N)=O)NC(=O)[C@H](CC(C)C)NC(=O)[C@H](CC(C)C)NC(=O)[C@H](C)NC(=O)[C@H](Cc2c[nH]c3ccccc23)NC(=O)[C@H](Cc2ccc(O)cc2)NC(=O)[C@H](CCC(=O)O)NC1=O)[C@@H](C)O [MP-027]: Poorly Behaved
CC(=O)N[C@@H](CCCCN=[N+]=[N-])C(=O)NCCC(=O)N[C@@H](CC(C)C)C(=O)N[C@H](C(=O)N[C@@H](Cc1ccccc1)C(=O)N[C@]1(C)CCCCCCC=CCCC[C@@](C)(C(=O)N[C@@H](CO)C(=O)N[C@@H](C)C(=O)N[C@@H](C)C(N)=O)NC(=O)[C@H](CC2CCC2)NC(=O)[C@H](CCC(N)=O)NC(=O)[C@H](C)NC(=O)[C@H](Cc2c[nH]c3ccccc23)NC(=O)[C@@H](CCC(=O)O)NC(=O)[C@H](C)NC1=O)[C@@H](C)O [MP-036] (Ac-[Lys(N3)][βAla]LTF[R8]A[dE]WAQ[Cba][S5]SAA-NH2; staple 6-13): Poorly Behaved
CC(=O)N[C@@H](CCCCN=[N+]=[N-])C(=O)N[C@H](C(=O)N[C@@H](CO)C(=O)N[C@@H](Cc1ccccc1)C(=O)N[C@]1(C)CCCCCCC=CCCC[C@@](C)(C(=O)N[C@@H](CO)C(=O)N[C@@H](C)C(=O)N[C@@H](C)C(N)=O)NC(=O)[C@H](CC2CCC2)NC(=O)[C@H](CCC(N)=O)NC(=O)[C@H](C)NC(=O)[C@H](Cc2c[nH]c3ccccc23)NC(=O)[C@H](Cc2ccc(O)cc2)NC(=O)[C@H](C)NC1=O)[C@@H](C)O [MP-703] (Ac-[Lys(N3)]TSF[R8]AYWAQ[Cba][S5]SAA-NH2; staple 5-12): Poorly Behaved

Hey, just so you know, these numbers are from paper PMC10786919.
